target: 5-hydroxytryptamine receptor 2A (Rattus norvegicus, UniProt P14842)
Sequence (P14842 whole entry): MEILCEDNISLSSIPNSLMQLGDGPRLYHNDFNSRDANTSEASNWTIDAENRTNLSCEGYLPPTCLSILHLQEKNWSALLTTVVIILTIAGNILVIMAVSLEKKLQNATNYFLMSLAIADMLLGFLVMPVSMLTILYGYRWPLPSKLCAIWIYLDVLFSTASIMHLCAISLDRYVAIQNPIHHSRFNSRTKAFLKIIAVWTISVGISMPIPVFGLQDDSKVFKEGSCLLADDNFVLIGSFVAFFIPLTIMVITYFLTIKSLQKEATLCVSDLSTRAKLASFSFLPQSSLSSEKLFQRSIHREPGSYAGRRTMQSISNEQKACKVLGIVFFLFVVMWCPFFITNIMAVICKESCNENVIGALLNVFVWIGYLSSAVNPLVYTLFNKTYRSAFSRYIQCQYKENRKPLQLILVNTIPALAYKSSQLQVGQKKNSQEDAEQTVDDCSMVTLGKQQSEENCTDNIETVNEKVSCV
Reported Ki values follow for various compounds
Write the answer as a number in nM, unit excluded.

Solved cases below.
CCN(CC)CCc1c[nH]c2cc(F)ccc12 :: 145
CCN(CC)CCc1c[nH]c2ccc(OC)cc12 :: 42
CN(C)CCc1c[nH]c2c(F)ccc(O)c12 :: 13
COc1ccc2[nH]cc(CCN(C)C)c2c1F :: 122
CCN(CC)CCc1c[nH]c2ccccc12 :: 133

Moving on to the next compound.
Prompt: Fetch value of Ki on 5-hydroxytryptamine receptor 2A (Rattus norvegicus, UniProt P14842) for COc1cc2c(CCN(C)C)c[nH]c2cc1F .
Response: 33

====

target: 5-hydroxytryptamine receptor 1A (Homo sapiens, UniProt P08908); assay: Evaluated for the binding constant at [3H]8-OH-DPAT-labeled human 5-hydroxytryptamine 1A receptor receptor
quantity_name: Ki (nM)
Express the result in nM but write the number alone.

Prompt: Respond only with Ki recorded for CN(C)CCc1c[nH]c2c(F)ccc(O)c12
Response: 120

====

biological target: 5-hydroxytryptamine receptor 2A (Rattus norvegicus); assay: Intrinsic activity was determined at 5-hydroxytryptamine 2A receptor which is percentage response given compared with the response produced by 10 uM serotonin.
Rule: measured Intrinsic activity below 80% gets 1.0; anything equal to or greater than 80% gets 0.0.

Would you please look over these solved cases?
CCN(CC)CCc1c[nH]c2cc(F)ccc12 :: 1.0
CCN(CC)CCc1c[nH]c2ccc(OC)cc12 :: 0.0
CN(C)CCc1c[nH]c2c(F)ccc(O)c12 :: 1.0
COc1ccc2[nH]cc(CCN(C)C)c2c1F :: 0.0
CN(C)CCc1c[nH]c2cc(F)cc(O)c12 :: 0.0

Here is the next item to consider.
Prompt: A record lists COc1cc2c(CCN(C)C)c[nH]c2cc1F . Is its Intrinsic activity below 80%?
Response: 0.0

====

Target: 5-hydroxytryptamine receptor 1A (Homo sapiens)
Sequence (P08908 whole entry): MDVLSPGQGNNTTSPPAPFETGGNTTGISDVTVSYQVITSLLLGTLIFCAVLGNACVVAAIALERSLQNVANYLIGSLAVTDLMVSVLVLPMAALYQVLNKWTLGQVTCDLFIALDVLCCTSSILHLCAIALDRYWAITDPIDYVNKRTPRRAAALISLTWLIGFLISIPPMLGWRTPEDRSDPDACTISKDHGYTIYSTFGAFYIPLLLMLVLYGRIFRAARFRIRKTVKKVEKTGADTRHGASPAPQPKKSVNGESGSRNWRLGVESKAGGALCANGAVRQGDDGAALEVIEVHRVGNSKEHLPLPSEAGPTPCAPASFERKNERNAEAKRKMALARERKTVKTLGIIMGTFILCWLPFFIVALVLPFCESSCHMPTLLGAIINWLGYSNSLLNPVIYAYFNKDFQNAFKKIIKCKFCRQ
Test: EC50 for inhibition of 50 uM forskolin-stimulated cAMP accumulation against 5-hydroxytryptamine 1A receptor
Measured pEC50 by item
On this scale, pEC50 is minus log10 of a concentration expressed in M (mol/L).

Below are worked cases with known answers.
CCN(CC)CCc1c[nH]c2cc(F)ccc12 :: 5.43
CCN(CC)CCc1c[nH]c2ccccc12 :: 6.17
CCCN(CCC)C1Cc2c[nH]c3ccc(C(C)=O)c(c23)C1 (stereo not given) :: 9.89
CCN(CC)CCc1c[nH]c2ccc(OC)cc12 :: 7.66

Prompt: Supply pEC50 value. Item: COc1ccc2[nH]cc(CCN(C)C)c2c1F
Response: 9.03
